Provide the recorded pIC50 for the entries that follow.
# System Name: Methionine--tRNA ligase (Escherichia coli) (UniProt P00959)
# Sequence (P00959 whole entry, looked up): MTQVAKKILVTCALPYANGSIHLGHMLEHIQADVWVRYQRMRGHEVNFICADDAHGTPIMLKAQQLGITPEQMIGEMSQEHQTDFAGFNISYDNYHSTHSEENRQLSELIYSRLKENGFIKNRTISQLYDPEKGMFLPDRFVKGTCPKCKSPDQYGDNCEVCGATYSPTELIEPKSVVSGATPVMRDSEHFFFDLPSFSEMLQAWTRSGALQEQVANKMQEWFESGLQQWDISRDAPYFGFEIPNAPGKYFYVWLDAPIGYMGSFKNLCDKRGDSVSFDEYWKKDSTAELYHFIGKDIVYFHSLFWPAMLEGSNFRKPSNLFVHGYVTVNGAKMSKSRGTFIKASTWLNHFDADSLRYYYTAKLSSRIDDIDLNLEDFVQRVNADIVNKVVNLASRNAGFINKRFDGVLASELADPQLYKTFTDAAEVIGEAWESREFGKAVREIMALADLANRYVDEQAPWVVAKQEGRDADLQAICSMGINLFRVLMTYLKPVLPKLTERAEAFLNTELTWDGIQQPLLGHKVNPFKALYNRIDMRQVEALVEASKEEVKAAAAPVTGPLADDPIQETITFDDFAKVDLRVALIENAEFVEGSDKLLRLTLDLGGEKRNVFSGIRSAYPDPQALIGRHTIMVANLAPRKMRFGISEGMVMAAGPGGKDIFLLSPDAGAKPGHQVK
// scale note: pIC50 = -log10(conc_M); give the bare number

Measured pIC50, COc1ccc(CC(=O)N(O)CCOC(=O)[C@@H](N)CCSC)cc1O : 4.06

Measured pIC50, COc1ccc(C(=O)N(O)CCOC(=O)[C@@H](N)CCSC)cc1O : 4.14

Measured pIC50, COc1ccc(C(=O)NCCOC(=O)[C@@H](N)CCSC)cc1O : 4.11

Measured pIC50, COc1cc(C2=N[C@H](COC(=O)[C@@H](N)CCSC)CO2)ccc1O : 4.47

Measured pIC50, COc1cc(CC(=O)NCCOC(=O)[C@@H](N)CCSC)ccc1O : 4.03

Measured pIC50, COc1cc(C(=O)N(O)CCOC(=O)[C@@H](N)CCSC)ccc1O : 4.49

Just for reference, BindingDB's records for doi:10.1016/s0960-894x(01)00096-8 is where these values come from.
